Let's look at some binders and their measured EC50.
Target: T1, TIGIT on TIGIT-over expressing NFAT-Luc/Jurkat effector cells (GenScript reporter cell line) (UniProt Q495A1 22-244, limits assumed)
T1 sequence (looked up): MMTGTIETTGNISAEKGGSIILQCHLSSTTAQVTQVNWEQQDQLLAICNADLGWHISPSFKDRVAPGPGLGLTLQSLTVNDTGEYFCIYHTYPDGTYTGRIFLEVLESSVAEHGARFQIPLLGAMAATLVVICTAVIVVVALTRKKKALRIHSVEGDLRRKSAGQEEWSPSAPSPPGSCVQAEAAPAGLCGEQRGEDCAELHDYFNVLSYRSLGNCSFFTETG
Assay: cell-based or functional assay
The figure you give is taken to be in nM; do not add the unit.

- huTIGIT-6-4 (antibody, human IgG1, kappa, V domains shown, Humanized IgG; also called 6VH6.M7 + 6VL1.M1) VH: QVQLVQSGAEVKKPGASVKVSCKASGYTFTENAMHWVRQAPGQRLEWIGGINPNNAGTSYSQKFQGRATLTVDTSASTAYMELSSLRSEDTAVYYCTRSSYYRYDLDYWGQGTTVTVSS VL: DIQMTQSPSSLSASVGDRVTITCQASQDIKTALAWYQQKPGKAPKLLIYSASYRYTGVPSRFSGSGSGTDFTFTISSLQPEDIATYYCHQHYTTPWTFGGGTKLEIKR: 14.8

# next binder below
Exercise: Need EC50 of TIGIT-3 chimeric antibody (antibody, human IgG1, kappa, V domains shown, also called 3VH + 3VL) VH: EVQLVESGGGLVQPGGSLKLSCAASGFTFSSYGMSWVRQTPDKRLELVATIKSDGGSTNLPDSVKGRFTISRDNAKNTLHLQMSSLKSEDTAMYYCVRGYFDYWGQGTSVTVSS VL: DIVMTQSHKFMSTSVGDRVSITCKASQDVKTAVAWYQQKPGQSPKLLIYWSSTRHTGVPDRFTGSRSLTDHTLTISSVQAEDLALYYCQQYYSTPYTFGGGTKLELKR , thanks.
Key: 2.1

Sourced from patent US20260139048A1
